Source listed as patent US20240116985A1.

assay: CHI Log D procedure; type: physicochemical; settings: pH 7.4
Given measured CHI Log D, output Criterion met if it is greater than or equal to 2 and Criterion not met if not.

compound: CC[C@@H]1NC(=O)[C@H](CC(=O)O)NC(=O)[C@]2(CC=CCCCC3(CCCC=CCCCCCC[C@@](C)(C(=O)N[C@@H](Cc4ccccc4)C(=O)N[C@@H](Cc4csc5ccccc45)C(=O)N[C@@H](CCC(N)=O)C(N)=O)NC(=O)[C@H](CC(N)=O)NC(=O)[C@H](Cc4ccccc4)NC(=O)[C@H](C)NC(=O)[C@H](C)NC(=O)[C@H](CC(=O)O)NC(=O)[C@H](CC(=O)O)NC3=O)NC1=O)CCCN2C(C)=O (some centres unmarked) [I-572]
class-label: Criterion met
--
compound: CC(=O)N1CCC[C@]12CC=CCCCC1(CCCC=CCCCCCC[C@@](C)(C(=O)N[C@@H](Cc3ccccc3)C(=O)N[C@@H](Cc3c[nH]c4ccccc34)C(=O)N[C@@H](CCC(N)=O)C(N)=O)NC(=O)[C@H](C(C)C)NC(=O)[C@H](Cc3ccccc3)NC(=O)[C@H](C)NC(=O)[C@H](C)NC(=O)[C@H](Cc3c[nH]cn3)NC(=O)[C@H](CC(=O)O)NC1=O)NC(=O)[C@H](C)NC(=O)[C@H](CC(=O)O)NC2=O (some centres unmarked) [I-304]
class-label: Criterion met
--
compound: CC(=O)N1CCC[C@]12CC=CCCCC1(CCCC=CCCCCCC[C@@](C)(C(=O)N[C@@H](Cc3ccccc3)C(=O)N[C@@H](Cc3csc4ccccc34)C(N)=O)NC(=O)[C@H](CC(N)=O)NC(=O)[C@H](Cc3ccccc3)NC(=O)[C@H](C)NC(=O)[C@H](C)NC(=O)[C@H](CCC(=O)O)NC(=O)[C@H](CC(=O)O)NC1=O)NC(=O)[C@H](CC(C)C)NC(=O)[C@H](CC(=O)O)NC2=O (some centres unmarked) [I-625]
class-label: Criterion met
--
compound: CC(=O)N1CCC[C@]12CC=CCCCC1(CCCC=CCCCCCC[C@@](C)(C(=O)N[C@@H](Cc3ccccc3)C(=O)N[C@@H](CC3CNc4ccccc43)C(=O)N[C@@H](CCC(N)=O)C(N)=O)NC(=O)[C@H](C(C)C)NC(=O)[C@H](Cc3ccccc3)NC(=O)[C@H](C)NC(=O)[C@H](C)NC(=O)[C@H](CCC(=O)O)NC(=O)[C@H](CC(=O)O)NC1=O)NC(=O)[C@H](C)NC(=O)[C@H](CC(=O)O)NC2=O (some centres unmarked) [I-167]
class-label: Criterion not met

Now, please, on to the next compound.
INPUT: Assess whether reported CHI Log D for CC[C@H](C)[C@@H]1NC(=O)[C@H](CC(=O)O)NC(=O)[C@]2(CC=CCCCC3(CCCC=CCCCCCC[C@@](C)(C(=O)N[C@@H](Cc4ccccc4OC)C(=O)N[C@@H](Cc4csc5ccccc45)C(=O)N[C@@H](CCC(N)=O)C(N)=O)NC(=O)[C@H](CC(N)=O)NC(=O)[C@H](Cc4ccccc4)NC(=O)[C@H](C)NC(=O)[C@H](C)NC(=O)[C@H](CC(=O)O)NC(=O)[C@H](CC(=O)O)NC3=O)NC1=O)CCCN2C(C)=O (some centres unmarked) [I-549] sits at 2 or higher.
OUTPUT: Criterion met
